Every entry's value here was drawn from ChEMBL document CHEMBL1137561.

Assay: Cytotoxicity against MT4 cells after 4 days by MTT method
Assay type: cell-based
Conditions: human
Property Measured: CC50 at 96 h

Take a look at these entries with their results.
| Molecule | Readout Value |
| --- | --- |
| Cc1c(Cc2c(F)cccc2F)nc(N(C)C(C)C)[nH]c1=O | 79 µM |
| O=c1cc(Cc2c(F)cccc2F)nc(N2CCCCC2)[nH]1 | > 82 µM |
| COc1ccccc1N1CCN(c2nc(Cc3c(F)cccc3F)c(C)c(=O)[nH]2)CC1 | 37 µM |
| Cc1c(Cc2c(F)cccc2F)nc(N2CCN(C)CC2)[nH]c1=O | > 75 µM |
| Cc1c(Cc2c(F)cccc2F)nc(N2CCOCC2)[nH]c1=O | > 78 µM |

// moving on: another record for CC50 at 96 h
Prompt line: Given the compound CCCN(C)c1nc(Cc2c(F)cccc2F)c(C)c(=O)[nH]1 , write its reported CC50 at 96 h.
Response line: > 81 µM

====

Biological target: Human immunodeficiency virus type 1 reverse transcriptase (Human immunodeficiency virus 1, UniProt Q72547)
Property Measured: Ki

Take a look at these entries with their results.
| Compound | Readout Value |
| --- | --- |
| Cc1c(C(C)c2c(F)cccc2F)nc(N(C)C)[nH]c1=O (stereo unspecified) | 100 nM |
| Cc1c(Cc2c(F)cccc2F)nc(N2CCSCC2)[nH]c1=O | 150 nM |
| Cc1c(C(C)c2c(F)cccc2F)nc(N2CCCCC2)[nH]c1=O (stereo unspecified) | 70 nM |
| CCCN(C)c1nc(Cc2c(F)cccc2F)c(C)c(=O)[nH]1 | 100 nM |
| CCC(c1cc(=O)[nH]c(N(C)C)n1)c1c(F)cccc1F (stereo unspecified) | 100 nM |

// moving on: another record for Ki
Prompt line: Given the compound Cc1c(Cc2c(F)cccc2F)nc(N(C)C)[nH]c1=O , write its reported Ki.
Response line: 100 nM

====

Test: Cytotoxicity against MT4 cells after 4 days by MTT method
Type: cell-based
Conditions: human
Property Measured: CC50 at 96 h

Take a look at these entries with their results.
| Compound | Property Measured | Readout Value |
| --- | --- | --- |
| CCc1c(C(C)c2c(F)cccc2F)nc(N(C)C)[nH]c1=O (configuration not stated) | CC50 at 96 h | > 81 µM |
| Cc1c(C(C)c2ccccc2F)nc(N(C)C)[nH]c1=O (configuration not stated) | CC50 at 96 h | 44 µM |
| CC1CCN(c2nc(Cc3c(F)cccc3F)cc(=O)[nH]2)CC1 | CC50 at 96 h | > 78 µM |
| CCN(CC)c1nc(Cc2c(F)cccc2F)cc(=O)[nH]1 | CC50 at 96 h | > 85 µM |
| O=c1cc(Cc2c(F)cccc2F)nc(N2CCCC2)[nH]1 | CC50 at 96 h | > 86 µM |
| Cc1c(Cc2c(F)cccc2F)nc(N2CCCCCC2)[nH]c1=O | CC50 at 96 h | > 75 µM |

// moving on: another record for CC50 at 96 h
Prompt line: Given the compound CC1CCCCN1c1nc(Cc2c(F)cccc2F)cc(=O)[nH]1 (configuration not stated) , write its reported CC50 at 96 h.
Response line: > 78 µM

====

Experiment: Inhibition of HIV1 reverse transcriptase Y1811 mutant
Set-up: species or system Human immunodeficiency virus 1
Property Measured: pKi
API: returns pKi as number; meaning -log10 of concentration in mol/L.

| Compound | pKi |
| --- | --- |
| Cc1c(C(C)c2c(F)cccc2F)nc(N(C)C)[nH]c1=O (centres undefined) | 5.40 |

// moving on: another record for pKi
Prompt line: Given the compound CCN(C)c1nc(C(C)c2c(F)cccc2F)c(C)c(=O)[nH]1 (centres undefined) , write its reported pKi.
Response line: 5.00

====

Target: Human immunodeficiency virus type 1 reverse transcriptase (Human immunodeficiency virus 1, UniProt Q72547, V179D)
Experiment: Inhibition of HIV1 reverse transcriptase V179D mutant
Property Measured: Ki (µM)
Write it as a number; the unit µM goes unstated.

Take a look at these entries with their results.
| Compound | Ki / µM |
| --- | --- |
| Cc1c(C(C)c2c(F)cccc2F)nc(N(C)C)[nH]c1=O (stereo not drawn) | 2 |
| Cc1c(C(C)c2c(F)cccc2F)nc(SC2CCCC2)[nH]c1=O (stereo not drawn) | 0.25 |
| Cc1c(Cc2c(F)cccc2F)nc(N2CCSCC2)[nH]c1=O | 40 |
| CCCN(C)c1nc(Cc2c(F)cccc2F)c(C)c(=O)[nH]1 | 0.2 |
| CCN(C)c1nc(C(C)c2c(F)cccc2F)c(C)c(=O)[nH]1 (stereo not drawn) | 0.02 |

Prompt line: Given the compound O=c1cc(Cc2c(F)cccc2F)nc(N2CCCCC2)[nH]1 , write its reported Ki.
Response line: 5

Prompt line: Given the compound COc1ccccc1N1CCN(c2nc(Cc3c(F)cccc3F)c(C)c(=O)[nH]2)CC1 , write its reported Ki.
Response line: 5

====

Collected CC50 at 96 h values appear next to each entry.
Experiment: Cytotoxicity against MT4 cells after 4 days by MTT method
Format: cell-based
Settings: human

Take a look at these entries with their results.
| Compound | Readout Value |
| --- | --- |
| Cc1c(C(C)c2c(F)cccc2F)nc(N2CCCC(C)C2)[nH]c1=O (centres undefined) | > 72 µM |
| Cc1c(Cc2c(F)cccc2F)nc(N2CCCC2)[nH]c1=O | > 82 µM |
| CCCN(CCC)c1nc(Cc2c(F)cccc2F)c(C)c(=O)[nH]1 | > 74 µM |

Prompt line: Given the compound Cc1c(Cc2c(F)cccc2F)nc(N2CCCCC2)[nH]c1=O , write its reported CC50 at 96 h.
Response line: > 78 µM

====

Target: Human immunodeficiency virus type 1 reverse transcriptase (Human immunodeficiency virus 1, UniProt Q72547, Y188L)
Test: Inhibition of HIV1 reverse transcriptase Y188L mutant
pKi: −log10 of the molar value.
Collected pKi values appear next to each entry.

Take a look at these entries with their results.
| Molecule | Property Measured | Readout Value |
| --- | --- | --- |
| Cc1c(Cc2c(F)cccc2F)nc(N2CCSCC2)[nH]c1=O | pKi | < 4.70 |
| CCCN(C)c1nc(Cc2c(F)cccc2F)c(C)c(=O)[nH]1 | pKi | < 4.70 |

// moving on: another record for pKi
Prompt line: Given the compound CN1CCN(c2nc(Cc3c(F)cccc3F)cc(=O)[nH]2)CC1 , write its reported pKi.
Response line: < 4.70

====

System: Human immunodeficiency virus 1
Test: Antiviral activity against HIV1 with reverse transcriptase K103N mutation in MT4 cells assessed as inhibition of viral induced cytopathic effect by MTT method
Type: functional, organism-based
Settings: Human immunodeficiency virus 1, MT4
Collected log10(EC50) values appear next to each entry.
Form field - Quantity: EC50; Unit: µM; Scale: log10

| Molecule | log10(EC50) |
| --- | --- |
| CCCN(C)c1nc(Cc2c(F)cccc2F)c(C)c(=O)[nH]1 | -0.12 |
| Cc1c(Cc2c(F)cccc2F)nc(N(C)C(C)C)[nH]c1=O | 0.08 |
| Cc1c(C(C)c2c(F)cccc2F)nc(N2CCSCC2)[nH]c1=O (stereo not drawn) | 0.09 |
| Cc1c(C(C)c2c(F)cccc2F)nc(N2CCCC(C)C2)[nH]c1=O (stereo not drawn) | -0.71 |
| Cc1c(C(C)c2c(F)cccc2F)nc(SC2CCCC2)[nH]c1=O (stereo not drawn) | -0.65 |
| Cc1c(C(C)c2c(F)cccc2F)nc(N(C)C(C)C)[nH]c1=O (stereo not drawn) | -2.22 |
| Cc1c(Cc2c(F)cccc2F)nc(N(C)C)[nH]c1=O | 0.38 |
| CCc1c(C(C)c2c(F)cccc2F)nc(N(C)C)[nH]c1=O (stereo not drawn) | -0.60 |
| Cc1c(C(C)c2c(F)cccc2F)nc(N2CCOCC2)[nH]c1=O (stereo not drawn) | -0.41 |
| CCN(C)c1nc(Cc2c(F)cccc2F)c(C)c(=O)[nH]1 | 0.66 |

Prompt line: Given the molecule Cc1c(C(C)c2c(F)cccc2F)nc(N2CCCCC2)[nH]c1=O (stereo not drawn) , write its reported log10(EC50).
Response line: -0.28

Prompt line: Given the molecule CCCNc1nc(C(C)c2c(F)cccc2F)c(C)c(=O)[nH]1 (stereo not drawn) , write its reported log10(EC50).
Response line: -0.43

Prompt line: Given the molecule Cc1c(Cc2c(F)cccc2F)nc(N(C)C2CCCCC2)[nH]c1=O , write its reported log10(EC50).
Response line: 0.64

====

Molecular target: Human immunodeficiency virus type 1 reverse transcriptase (Human immunodeficiency virus 1, UniProt Q72547, L100I)
Assay: Inhibition of HIV1 reverse transcriptase L100I mutant
Property Measured: pKi
API: returns pKi as number; meaning -log10 of concentration in mol/L.

Take a look at these entries with their results.
| Molecule | Property Measured | Readout Value |
| --- | --- | --- |
| CCCN(C)c1nc(Cc2c(F)cccc2F)c(C)c(=O)[nH]1 | pKi | 4.74 |
| CCC(c1cc(=O)[nH]c(N(C)C)n1)c1c(F)cccc1F (centres undefined) | pKi | 5.48 |

Prompt line: Given the molecule Cc1c(C(C)c2c(F)cccc2F)nc(N(C)C(C)C)[nH]c1=O (centres undefined) , write its reported pKi.
Response line: 5.00
